Target: Mitogen-activated protein kinase 11 (Homo sapiens)
Assay: Inhibition of recombinant human full length His-tagged p38-beta expressed in baculovirus expression system at 500 nM by Z-LYTE assay relative to control
measured quantity: inhibition (%)

1) OC[C@@H](Nc1ncnc2sc(-c3ccc(O)cc3)cc12)c1ccccc1; 4
2) CCC(=O)Nc1ccc(-c2c[nH]c3ncnc(N[C@H](C)c4ccccc4)c23)cc1; 2
3) OCc1ccc(-c2cc3c(N[C@H](CO)c4ccccc4)ncnc3[nH]2)cc1; 6
4) CN(C)CCn1cc(-c2cccc(O)c2)c2c(N)ncnc21; 2

----------
Biological target: Luciferin 4-monooxygenase (Photinus pyralis, UniProt P08659)
Sequence (P08659 whole entry): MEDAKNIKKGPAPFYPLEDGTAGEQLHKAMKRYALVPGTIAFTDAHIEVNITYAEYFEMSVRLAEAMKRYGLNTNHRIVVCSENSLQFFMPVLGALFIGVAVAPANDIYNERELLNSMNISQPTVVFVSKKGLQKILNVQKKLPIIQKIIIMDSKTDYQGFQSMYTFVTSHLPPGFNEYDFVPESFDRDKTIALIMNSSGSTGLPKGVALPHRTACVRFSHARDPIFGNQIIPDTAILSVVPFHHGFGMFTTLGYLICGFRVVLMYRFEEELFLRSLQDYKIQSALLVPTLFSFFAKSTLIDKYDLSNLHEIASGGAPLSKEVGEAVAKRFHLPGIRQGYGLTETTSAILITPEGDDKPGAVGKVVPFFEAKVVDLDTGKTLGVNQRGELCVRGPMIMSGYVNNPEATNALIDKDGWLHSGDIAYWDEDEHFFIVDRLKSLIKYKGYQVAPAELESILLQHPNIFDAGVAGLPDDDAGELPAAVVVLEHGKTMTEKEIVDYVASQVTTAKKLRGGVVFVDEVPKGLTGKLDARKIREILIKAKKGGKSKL
Test: Inhibition of firefly luciferase activity expressed in HEK293 cells after 18 hrs by luminescence assay
measured quantity: IC50 (µM)

1. CCC(=O)Nc1ccc(-c2c[nH]c3ncnc(N[C@H](C)c4ccccc4)c23)cc1; 9.1

----------
Target: Receptor tyrosine-protein kinase erbB-4 (Homo sapiens)
Assay: Inhibition of recombinant humans GST-tagged ERBB4 cytoplasmic domain expressed in baculovirus expression system at 500 nM by Z-LYTE assay relative to control
measured quantity: inhibition (%)

1) CN(C)CCn1cc(-c2cccc(O)c2)c2c(N)ncnc21; 3
2) CCC(=O)Nc1ccc(-c2c[nH]c3ncnc(N[C@H](C)c4ccccc4)c23)cc1; 12
3) OC[C@@H](Nc1ncnc2sc(-c3ccc(O)cc3)cc12)c1ccccc1; 20
4) OCc1ccc(-c2cc3c(N[C@H](CO)c4ccccc4)ncnc3[nH]2)cc1; 71

----------
Target: Tyrosine-protein kinase BTK (Homo sapiens) (UniProt Q06187)
Sequence (Q06187 whole entry): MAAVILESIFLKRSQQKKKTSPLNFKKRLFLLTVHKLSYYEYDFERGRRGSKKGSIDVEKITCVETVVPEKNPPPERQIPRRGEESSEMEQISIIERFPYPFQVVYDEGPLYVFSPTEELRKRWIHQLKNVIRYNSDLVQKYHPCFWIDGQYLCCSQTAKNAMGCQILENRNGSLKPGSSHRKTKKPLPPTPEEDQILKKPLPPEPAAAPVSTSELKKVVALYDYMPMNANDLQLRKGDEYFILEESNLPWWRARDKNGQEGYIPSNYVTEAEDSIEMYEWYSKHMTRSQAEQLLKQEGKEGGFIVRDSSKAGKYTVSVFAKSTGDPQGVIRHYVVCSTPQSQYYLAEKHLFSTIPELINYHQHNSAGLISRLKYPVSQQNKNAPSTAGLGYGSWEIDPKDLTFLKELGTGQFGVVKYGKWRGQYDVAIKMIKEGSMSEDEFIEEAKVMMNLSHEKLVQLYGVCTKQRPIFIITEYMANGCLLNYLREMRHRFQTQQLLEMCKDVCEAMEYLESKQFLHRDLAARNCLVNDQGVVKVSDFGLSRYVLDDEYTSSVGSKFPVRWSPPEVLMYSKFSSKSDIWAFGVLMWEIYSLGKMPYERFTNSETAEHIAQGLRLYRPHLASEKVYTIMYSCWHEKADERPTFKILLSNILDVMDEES
Assay: Inhibition of recombinant human full length His-tagged BTK expressed in baculovirus expression system at 500 nM by Z-LYTE assay relative to control
measured quantity: inhibition (%)

1) OC[C@@H](Nc1ncnc2sc(-c3ccc(O)cc3)cc12)c1ccccc1; 5
2) CCC(=O)Nc1ccc(-c2c[nH]c3ncnc(N[C@H](C)c4ccccc4)c23)cc1; 3
3) CN(C)CCn1cc(-c2cccc(O)c2)c2c(N)ncnc21; 62
4) OCc1ccc(-c2cc3c(N[C@H](CO)c4ccccc4)ncnc3[nH]2)cc1; 9

----------
Target: Tyrosine-protein kinase Yes (Homo sapiens) (UniProt P07947)
Sequence (P07947 2-543 limits assumed): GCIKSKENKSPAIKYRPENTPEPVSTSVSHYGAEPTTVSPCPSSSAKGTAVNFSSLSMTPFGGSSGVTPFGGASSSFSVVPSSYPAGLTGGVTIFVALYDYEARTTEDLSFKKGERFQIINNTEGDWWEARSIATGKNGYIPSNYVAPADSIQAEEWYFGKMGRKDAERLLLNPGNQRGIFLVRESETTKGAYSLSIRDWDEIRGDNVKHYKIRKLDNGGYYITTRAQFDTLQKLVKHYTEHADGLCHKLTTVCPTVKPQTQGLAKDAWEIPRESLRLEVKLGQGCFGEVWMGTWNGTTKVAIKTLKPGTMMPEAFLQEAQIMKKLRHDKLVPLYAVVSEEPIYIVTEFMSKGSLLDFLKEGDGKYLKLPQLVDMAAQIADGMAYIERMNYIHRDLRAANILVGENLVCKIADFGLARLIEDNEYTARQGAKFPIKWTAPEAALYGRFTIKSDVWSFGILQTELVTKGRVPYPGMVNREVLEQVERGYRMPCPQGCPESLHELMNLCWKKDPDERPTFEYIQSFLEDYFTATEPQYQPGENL
Assay: Inhibition of human full length GST-tagged YES1 expressed in baculovirus expression system at 500 nM by Z-LYTE assay relative to control
Overview of reported inhibition across a group of compounds:
measured quantity: inhibition (%)

1. CCC(=O)Nc1ccc(-c2c[nH]c3ncnc(N[C@H](C)c4ccccc4)c23)cc1; 9
2. OCc1ccc(-c2cc3c(N[C@H](CO)c4ccccc4)ncnc3[nH]2)cc1; 81
3. CN(C)CCn1cc(-c2cccc(O)c2)c2c(N)ncnc21; 65
4. OC[C@@H](Nc1ncnc2sc(-c3ccc(O)cc3)cc12)c1ccccc1; 13

----------
Target: Hepatocyte growth factor receptor (Homo sapiens) (UniProt P08581)
Sequence (P08581 whole entry, the tested form may be a part): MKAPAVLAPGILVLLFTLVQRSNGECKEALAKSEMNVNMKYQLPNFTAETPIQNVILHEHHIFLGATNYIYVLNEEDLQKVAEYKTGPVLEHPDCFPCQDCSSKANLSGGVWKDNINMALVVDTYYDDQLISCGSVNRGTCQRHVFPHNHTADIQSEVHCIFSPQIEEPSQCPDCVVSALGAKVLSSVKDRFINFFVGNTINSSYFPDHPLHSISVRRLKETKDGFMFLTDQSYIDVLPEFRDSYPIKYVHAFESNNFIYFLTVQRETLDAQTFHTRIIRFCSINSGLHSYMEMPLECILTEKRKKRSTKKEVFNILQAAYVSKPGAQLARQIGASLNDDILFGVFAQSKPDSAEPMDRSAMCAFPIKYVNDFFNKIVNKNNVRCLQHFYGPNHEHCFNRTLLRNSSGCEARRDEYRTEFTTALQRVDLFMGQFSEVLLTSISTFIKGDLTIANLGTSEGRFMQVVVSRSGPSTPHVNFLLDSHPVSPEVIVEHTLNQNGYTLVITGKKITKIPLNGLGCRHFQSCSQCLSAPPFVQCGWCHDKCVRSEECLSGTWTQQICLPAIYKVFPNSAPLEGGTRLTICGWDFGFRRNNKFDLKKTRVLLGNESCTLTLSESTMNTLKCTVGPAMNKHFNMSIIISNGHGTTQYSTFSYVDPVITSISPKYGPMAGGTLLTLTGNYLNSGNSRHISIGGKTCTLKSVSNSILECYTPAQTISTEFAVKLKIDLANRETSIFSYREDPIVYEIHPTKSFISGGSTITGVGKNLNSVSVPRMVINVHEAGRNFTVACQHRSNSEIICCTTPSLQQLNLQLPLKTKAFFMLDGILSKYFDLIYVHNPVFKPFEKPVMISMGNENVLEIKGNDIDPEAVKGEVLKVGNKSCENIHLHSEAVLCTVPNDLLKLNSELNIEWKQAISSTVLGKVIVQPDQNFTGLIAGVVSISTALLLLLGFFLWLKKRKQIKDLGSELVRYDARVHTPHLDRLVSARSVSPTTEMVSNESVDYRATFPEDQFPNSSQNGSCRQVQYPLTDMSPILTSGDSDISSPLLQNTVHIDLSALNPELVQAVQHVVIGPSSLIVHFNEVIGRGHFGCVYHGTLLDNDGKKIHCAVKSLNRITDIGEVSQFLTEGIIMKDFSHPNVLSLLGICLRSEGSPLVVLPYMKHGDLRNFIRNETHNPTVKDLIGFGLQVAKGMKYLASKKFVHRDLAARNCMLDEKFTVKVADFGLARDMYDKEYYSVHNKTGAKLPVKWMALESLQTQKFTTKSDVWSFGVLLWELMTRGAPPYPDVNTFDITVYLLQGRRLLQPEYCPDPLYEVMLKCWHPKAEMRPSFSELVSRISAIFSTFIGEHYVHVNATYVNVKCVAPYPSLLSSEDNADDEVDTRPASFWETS
Assay: Inhibition of recombinant truncated human His-tagged MET expressed in mammalian expression system at 500 nM by Z-LYTE assay relative to control
Overview of reported inhibition across a group of compounds:
measured quantity: inhibition (%)

1. CCC(=O)Nc1ccc(-c2c[nH]c3ncnc(N[C@H](C)c4ccccc4)c23)cc1; 6
2. CN(C)CCn1cc(-c2cccc(O)c2)c2c(N)ncnc21; 4
3. OC[C@@H](Nc1ncnc2sc(-c3ccc(O)cc3)cc12)c1ccccc1; 1
4. OCc1ccc(-c2cc3c(N[C@H](CO)c4ccccc4)ncnc3[nH]2)cc1; 14
